B1: library; numbered along this chain (parent)
chain: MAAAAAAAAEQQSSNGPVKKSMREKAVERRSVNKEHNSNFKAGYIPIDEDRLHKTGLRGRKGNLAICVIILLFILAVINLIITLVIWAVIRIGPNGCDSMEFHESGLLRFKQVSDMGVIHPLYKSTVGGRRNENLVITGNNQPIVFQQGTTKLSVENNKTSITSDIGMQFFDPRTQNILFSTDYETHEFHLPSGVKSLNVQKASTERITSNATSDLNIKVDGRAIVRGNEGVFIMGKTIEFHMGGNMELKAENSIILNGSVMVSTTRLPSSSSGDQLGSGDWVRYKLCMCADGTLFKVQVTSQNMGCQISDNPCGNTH

Variants of: B1
Assay Explanation: SGCB cell-surface expression functional score (HA stain, bin4 vs bin1, normalised to synonymous) (log10 ratio); higher = more cell-surface SGCB (functional)
Hi there, I'd appreciate the recorded SGCB cell-surface expression functional score (log10) for every entry that follows.
Enter a number only.

For this variant ( I309A ), measured SGCB cell-surface expression functional score (log10) is 0.27

Looking up Q147L , I found its SGCB cell-surface expression functional score (log10) recorded as -0.21

For T163F the variant record lists SGCB cell-surface expression functional score (log10) as -0.27

Query T83C yields SGCB cell-surface expression functional score (log10) of -0.51

Looking up S310C , I see its SGCB cell-surface expression functional score (log10) listed as -0.2

The variant listed as S161K has a reported SGCB cell-surface expression functional score (log10) of -0.33

Record summary for C314W : reported SGCB cell-surface expression functional score (log10) = 0.19

Form field SGCB cell-surface expression functional score (log10), entry D215E : 0.16

Value of SGCB cell-surface expression functional score (log10) reported for the variant A8L is -0.18

Data point: N39W ; SGCB cell-surface expression functional score (log10) = -0.81

Per the records, this variant ( N199H ) has SGCB cell-surface expression functional score (log10) equal to 0.18

The variant listed as V118I shows SGCB cell-surface expression functional score (log10) equal to 0.32

Per the records, this variant ( V113I ) has SGCB cell-surface expression functional score (log10) equal to 0.04

Value of measured SGCB cell-surface expression functional score (log10) for the entry N217F : 1.13

Value of measured SGCB cell-surface expression functional score (log10) for the entry I78V : 0

# SGCB cell-surface expression functional score (log10) of V68Y = -0.25

The variant identified as R227N registered its SGCB cell-surface expression functional score (log10) at -0.13

The value of SGCB cell-surface expression functional score (log10) measured for the variant G244I turned out to be -0.24

GET /value?item= Q303E &field=SGCB cell-surface expression functional score (log10) returns 0.08

# SGCB cell-surface expression functional score (log10) (variant: A5H ) is 0.12

Lookup result for V118D ; measured SGCB cell-surface expression functional score (log10): -0.11

SGCB cell-surface expression functional score (log10) for V300G is -0.65
